- Protocol Description: pKa by spectrophotometric titration
- Format: physicochemical
- Assay Conditions: water, 1.0 m kcl, dissociation of hydroxyl, amide and amine protons: 19^2- to 19^3-; approximated
Quantity Kind: pKa

Param item = CC(=O)Nc1c(C)c(O)c2c(nc3n2CCC3)c1N ; retrieve measured pKa.
> 15

---

- Protocol Description: pKa by spectrophotometric titration
- Assay type: physicochemical
- Assay Conditions: water, 1.0 m kcl, dissociation of hydroxyl, amide and amine protons: 19^- to 19^2-; approximated
Quantity Kind: pKa

Sample CC(=O)Nc1c(C)c(O)c2c(nc3n2CCC3)c1N [compound 19] — what was its pKa?
> 15

Measured values drawn from patent US5015742A for this set.
